Assay comment: Phase 1 study Part 2: food effect on plasma PK of LUM-201 capsule
Type: in vivo, human
Measurement conditions: human, plasma, po, 85.3 mg, Part 2, Treatment A: 85.3 mg capsule, oral, fasted; read-out: Cmax, Arithmetic Mean
Property measured: Cmax (µg/mL)

compound="CC(C)(N)C(=O)N[C@H](COCc1ccccc1)C(=O)N1CCC2(CC1)CN(S(C)(=O)=O)c1ccccc12 [LUM-201]" output_unit=µg/mL assay_value=0.0873

###

Assay comment: Phase 1 study Part 2: food effect on plasma PK of LUM-201 capsule
Format: in vivo, human
Measurement conditions: human, plasma, po, 85.3 mg, Part 2, Treatment B: 85.3 mg capsule, oral, 30 minutes after start of high-fat meal; read-out: AUC0-inf, Arithmetic Mean
Property measured: AUC(0-inf) (ng·h/mL)

molecule="CC(C)(N)C(=O)N[C@H](COCc1ccccc1)C(=O)N1CCC2(CC1)CN(S(C)(=O)=O)c1ccccc12 [LUM-201]" property_measured=AUC(0-inf) assay_value=626

###

Assay comment: Phase 1 study Part 2: food effect on plasma PK of LUM-201 capsule
Format: in vivo, human
Measurement conditions: human, plasma, po, 85.3 mg, Part 2, Treatment A: 85.3 mg capsule, oral, fasted; read-out: AUC0-last, Arithmetic Mean
Property measured: AUC(0-t) (ng·h/mL)

entry_smiles=CC(C)(N)C(=O)N[C@H](COCc1ccccc1)C(=O)N1CCC2(CC1)CN(S(C)(=O)=O)c1ccccc12 property_measured=AUC(0-t) assay_value=528

Recorded values, source patent US20250332149A1.
